target: UniProt Q8IIF4
procedureSummary: IC50 for competition of protein binding to Kinobeads;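 further: native unpurified kinases from lysate captured on beads bearing immobilized kinase inhibitors, with bead-bound kinases quantified by mass spectrometry across compound doses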
runParameters: assay detail: Kinobeads competition in P. falciparum blood-stage lysate
quantity: IC50

Ask: # get_value(readout= IC50, system= UniProt Q8IIF4) for O=c1[nH]c2ccc(Cl)cc2c(NC2CN3CCC2CC3)c1-c1nc2ccccc2[nH]1 (stereo unspecified)
Reply: > 20 µM

====

target: UniProt Q8IIV8
procedureSummary: IC50 for competition of protein binding to Kinobeads
runParameters: assay detail: Kinobeads competition in P. falciparum blood-stage lysate
pIC50: −log10 of the molar value.
quantity: pIC50

Ask: State its pIC50 on UniProt Q8IIV8: O=c1[nH]c2ccc(Cl)cc2c(NC2CN3CCC2CC3)c1-c1nc2ccccc2[nH]1 (stereo unspecified)
Reply: < 4.70

====

target: UniProt Q8IJX8
Sequence (Q8IJX8 whole entry): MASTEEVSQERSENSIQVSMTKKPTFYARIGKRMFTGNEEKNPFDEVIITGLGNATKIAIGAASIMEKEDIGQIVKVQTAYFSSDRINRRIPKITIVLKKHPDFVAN
procedureSummary: IC50 for competition of protein binding to Kinobeads
runParameters: assay detail: Kinobeads competition in P. falciparum blood-stage lysate
quantity: IC50

Ask: Look at this compound and give its reported IC50. O=c1[nH]c2ccc(Cl)cc2c(NC2CN3CCC2CC3)c1-c1nc2ccccc2[nH]1 (stereo unspecified) [CHIR-124]
Reply: > 20 µM

====

target: UniProt Q8I5Q6
procedureSummary: IC50 for competition of protein binding to Kinobeads
runParameters: assay detail: Kinobeads competition in P. falciparum blood-stage lysate
pIC50: −log10 of the molar value.
quantity: pIC50

Ask: Fill in: pIC50 of O=c1[nH]c2ccc(Cl)cc2c(NC2CN3CCC2CC3)c1-c1nc2ccccc2[nH]1 (stereo unspecified) is ___
Reply: < 4.70

====

target: UniProt Q8IKL5
procedureSummary: IC50 for competition of protein binding to Kinobeads
runParameters: assay detail: Kinobeads competition in P. falciparum blood-stage lysate
pIC50: −log10 of the molar value.
quantity: pIC50

Ask: Param item = O=c1[nH]c2ccc(Cl)cc2c(NC2CN3CCC2CC3)c1-c1nc2ccccc2[nH]1 (stereo unspecified) [CHIR-124] ; retrieve measured pIC50.
Reply: < 4.70

====

target: UniProt Q8IB24
procedureSummary: IC50 for competition of protein binding to Kinobeads
runParameters: assay detail: Kinobeads competition in P. falciparum blood-stage lysate
quantity: IC50

Ask: Form field: reported IC50 of O=c1[nH]c2ccc(Cl)cc2c(NC2CN3CCC2CC3)c1-c1nc2ccccc2[nH]1 (stereo unspecified)
Reply: > 20 µM

====

target: UniProt Q8IAM2
procedureSummary: IC50 for competition of protein binding to Kinobeads
runParameters: assay detail: Kinobeads competition in P. falciparum blood-stage lysate
quantity: IC50

Ask: Endpoint output: IC50 of O=c1[nH]c2ccc(Cl)cc2c(NC2CN3CCC2CC3)c1-c1nc2ccccc2[nH]1 (stereo unspecified) . Value?
Reply: > 20 µM

====

target: UniProt C0H5J6
procedureSummary: IC50 for competition of protein binding to Kinobeads
runParameters: assay detail: Kinobeads competition in P. falciparum blood-stage lysate
quantity: IC50

Ask: Can you look up the measured IC50 of O=c1[nH]c2ccc(Cl)cc2c(NC2CN3CCC2CC3)c1-c1nc2ccccc2[nH]1 (stereo unspecified) for me?
Reply: > 20 µM

====

target: UniProt Q8ILE8
procedureSummary: IC50 for competition of protein binding to Kinobeads
runParameters: assay detail: Kinobeads competition in P. falciparum blood-stage lysate
quantity: IC50

Ask: What does the record list as IC50 for O=c1[nH]c2ccc(Cl)cc2c(NC2CN3CCC2CC3)c1-c1nc2ccccc2[nH]1 (stereo unspecified) ?
Reply: > 20 µM

====

target: UniProt Q8I2I8
procedureSummary: IC50 for competition of protein binding to Kinobeads
runParameters: assay detail: Kinobeads competition in P. falciparum blood-stage lysate
quantity: IC50

Ask: // lookup IC50 for O=c1[nH]c2ccc(Cl)cc2c(NC2CN3CCC2CC3)c1-c1nc2ccccc2[nH]1 (stereo unspecified)
Reply: > 20 µM

====

target: UniProt Q8IBI0
procedureSummary: IC50 for competition of protein binding to Kinobeads
runParameters: assay detail: Kinobeads competition in P. falciparum blood-stage lysate
quantity: IC50

Ask: Form field - read-out: IC50; system: UniProt Q8IBI0; submitted item: O=c1[nH]c2ccc(Cl)cc2c(NC2CN3CCC2CC3)c1-c1nc2ccccc2[nH]1 (stereo unspecified) [CHIR-124]
Reply: > 20 µM

====

target: UniProt Q8IIC0
procedureSummary: IC50 for competition of protein binding to Kinobeads
runParameters: assay detail: Kinobeads competition in P. falciparum blood-stage lysate
quantity: IC50

Ask: Item: O=c1[nH]c2ccc(Cl)cc2c(NC2CN3CCC2CC3)c1-c1nc2ccccc2[nH]1 (stereo unspecified) Test system: UniProt Q8IIC0 Read-out: IC50 Value: ?
Reply: > 20 µM

====

target: UniProt C6KSV0
procedureSummary: IC50 for competition of protein binding to Kinobeads
runParameters: assay detail: Kinobeads competition in P. falciparum blood-stage lysate
quantity: IC50

Ask: # lookup: IC50 of O=c1[nH]c2ccc(Cl)cc2c(NC2CN3CCC2CC3)c1-c1nc2ccccc2[nH]1 (stereo unspecified)
Reply: > 20 µM

====

target: UniProt Q8I3Y8
Sequence (whole entry): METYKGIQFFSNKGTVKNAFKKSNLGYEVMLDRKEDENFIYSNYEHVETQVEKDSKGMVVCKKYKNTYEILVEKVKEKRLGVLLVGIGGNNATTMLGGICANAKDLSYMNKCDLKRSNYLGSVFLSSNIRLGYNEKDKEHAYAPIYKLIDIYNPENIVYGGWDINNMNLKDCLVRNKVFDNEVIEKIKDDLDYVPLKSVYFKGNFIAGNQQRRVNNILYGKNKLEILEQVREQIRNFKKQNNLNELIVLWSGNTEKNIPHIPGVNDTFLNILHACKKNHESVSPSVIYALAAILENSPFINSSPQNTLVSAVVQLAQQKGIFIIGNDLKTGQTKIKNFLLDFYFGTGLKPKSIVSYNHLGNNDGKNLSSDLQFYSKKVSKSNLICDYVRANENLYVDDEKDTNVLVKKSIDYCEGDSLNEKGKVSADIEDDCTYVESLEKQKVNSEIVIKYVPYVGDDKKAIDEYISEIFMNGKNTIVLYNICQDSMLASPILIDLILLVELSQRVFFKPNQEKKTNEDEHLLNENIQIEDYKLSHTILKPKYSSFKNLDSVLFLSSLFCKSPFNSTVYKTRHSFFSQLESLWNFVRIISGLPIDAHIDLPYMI
procedureSummary: IC50 for competition of protein binding to Kinobeads
runParameters: assay detail: Kinobeads competition in P. falciparum blood-stage lysate
pIC50: −log10 of the molar value.
quantity: pIC50

Ask: Field request: pIC50 | item: O=c1[nH]c2ccc(Cl)cc2c(NC2CN3CCC2CC3)c1-c1nc2ccccc2[nH]1 (stereo unspecified)
Reply: < 4.70

====

target: UniProt Q8I4Q5
procedureSummary: IC50 for competition of protein binding to Kinobeads
runParameters: assay detail: Kinobeads competition in P. falciparum blood-stage lysate
quantity: IC50

Ask: Which IC50 value belongs to O=c1[nH]c2ccc(Cl)cc2c(NC2CN3CCC2CC3)c1-c1nc2ccccc2[nH]1 (stereo unspecified) [CHIR-124] ?
Reply: > 20 µM

====

target: UniProt Q8III6
procedureSummary: IC50 for competition of protein binding to Kinobeads
runParameters: assay detail: Kinobeads competition in P. falciparum blood-stage lysate
pIC50: −log10 of the molar value.
quantity: pIC50

Ask: What does the data say about its pIC50? Entry: O=c1[nH]c2ccc(Cl)cc2c(NC2CN3CCC2CC3)c1-c1nc2ccccc2[nH]1 (stereo unspecified)
Reply: < 4.70

====

target: UniProt Q8I298
procedureSummary: IC50 for competition of protein binding to Kinobeads
runParameters: assay detail: Kinobeads competition in P. falciparum blood-stage lysate
quantity: IC50

Ask: I am curious: what IC50 value has been reported for O=c1[nH]c2ccc(Cl)cc2c(NC2CN3CCC2CC3)c1-c1nc2ccccc2[nH]1 (stereo unspecified) [CHIR-124] ?
Reply: > 20 µM

====

target: UniProt Q8II62
procedureSummary: IC50 for competition of protein binding to Kinobeads
runParameters: assay detail: Kinobeads competition in P. falciparum blood-stage lysate
pIC50: −log10 of the molar value.
quantity: pIC50

Ask: Any idea what pIC50 was measured for O=c1[nH]c2ccc(Cl)cc2c(NC2CN3CCC2CC3)c1-c1nc2ccccc2[nH]1 (stereo unspecified) ?
Reply: < 4.70

====

target: UniProt Q8I5B6
procedureSummary: IC50 for competition of protein binding to Kinobeads
runParameters: assay detail: Kinobeads competition in P. falciparum blood-stage lysate
pIC50: −log10 of the molar value.
quantity: pIC50

Ask: Give the reported pIC50 for O=c1[nH]c2ccc(Cl)cc2c(NC2CN3CCC2CC3)c1-c1nc2ccccc2[nH]1 (stereo unspecified) [CHIR-124] (system: UniProt Q8I5B6).
Reply: < 4.70

====

target: UniProt Q8IJV7
procedureSummary: IC50 for competition of protein binding to Kinobeads
runParameters: assay detail: Kinobeads competition in P. falciparum blood-stage lysate
quantity: IC50

Ask: Report IC50 for O=c1[nH]c2ccc(Cl)cc2c(NC2CN3CCC2CC3)c1-c1nc2ccccc2[nH]1 (stereo unspecified) please.
Reply: > 20 µM
